Test Target: BSA (UniProt P02769 25-607)
Sequence (P02769 25-607 limits assumed): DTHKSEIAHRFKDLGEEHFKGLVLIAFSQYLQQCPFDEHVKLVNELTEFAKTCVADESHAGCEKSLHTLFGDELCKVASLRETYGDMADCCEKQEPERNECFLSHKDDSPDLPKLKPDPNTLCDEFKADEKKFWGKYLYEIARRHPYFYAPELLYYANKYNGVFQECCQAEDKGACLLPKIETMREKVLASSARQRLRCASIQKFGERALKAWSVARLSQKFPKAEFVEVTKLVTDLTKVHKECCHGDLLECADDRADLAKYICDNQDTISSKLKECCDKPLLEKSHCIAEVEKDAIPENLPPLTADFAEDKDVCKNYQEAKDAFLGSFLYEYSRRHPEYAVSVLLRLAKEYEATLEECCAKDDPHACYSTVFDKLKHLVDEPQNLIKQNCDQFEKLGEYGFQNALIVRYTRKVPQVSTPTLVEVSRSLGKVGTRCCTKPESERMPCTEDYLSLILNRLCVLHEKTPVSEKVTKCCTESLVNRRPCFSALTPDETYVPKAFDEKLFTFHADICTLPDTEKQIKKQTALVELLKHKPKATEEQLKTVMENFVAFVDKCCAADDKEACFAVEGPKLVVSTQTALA
Experiment: cell-based or functional assay
In this section we review reported IC50 (µM) for inhibiting thermal aggregation of BSA values for a set of binders.
Value Type: IC50 (µM) for inhibiting thermal aggregation of BSA

{"Binder": "CF-29 (SEQ ID NO: 46) (peptide) SELDFWDNWKDRQADLPAASDDEDFENDLAEVDHEDPLVDGNEWDGDEVEFELEEQKTVLLMILVCETPYGCYVLHQKGRMCSAFLCC", "Readout Value": 13.8}
{"Binder": "CF-25 (SEQ ID NO: 39) (peptide) SEKKQPVDLGLLEEDDEFEEFPAEDWAGLDEDEDAHVWEDNWDDDNVEDDFSNQLRATVLLMILVVETPYGVYVLHQKGRMASAFLAV", "Readout Value": 21.5}
{"Binder": "CF-24 (SEQ ID NO: 38) (peptide) SEKKQPVDLGLLEEDDEFEEFPAEDWAGLDEDEDAHVWEDNWDDDNVEDDFSNQLRATVLLMILVVETPYGAYVLHQKGRMVSAFLVA", "Readout Value": 17.6}
{"Binder": "CF-43 (SEQ ID NO: 54) (peptide) SEKKQPVDLGLLEEDDEFEEFPAEDWAGLDEDEDAHVWEDNWDDDNVTSDFSNQLRATVLLMILVCETPYGCYVLHQKGRMCS", "Readout Value": 6.77}
{"Binder": "CF-40 (SEQ ID NO: 53) (peptide) SEKKQPVDLGLLEEDDEFEEFPAEDWAGLDEDEDAHVWEDNWDDDNVTSDFSNQLRATVLLMILVCETPYGCYVLHQKGRMCSAFLCC", "Readout Value": 12}
{"Binder": "CF-28 (SEQ ID NO: 45) (peptide) SEFEDANKEQGEVPNDDVSDELPKLLDDDEDELRGALFFQWHDWEEAEDNDWDVEDATVLLMILVCETPYGCYVLHQKGRMCSAFLCC", "Readout Value": 7.48}
{"Binder": "CF-22 (SEQ ID NO: 36) (peptide) SEKKQPVDLGLLEEDDEFEEFPAEDWAGLDEDEDAHVWEDNWDDDNVEDDFSNQLRATVLLMILVVETPYGAYVLHQKGRMASAFLVV", "Readout Value": 16.9}
{"Binder": "CF-31 (SEQ ID NO: 48) (peptide) SQWAPLDHLESDEWGAFEDEDFNNGDVEELDPEERDDEDLFQKDVLVAKADDEEWDNTVLLMILVCETPYGCYVLHQKGRMCSAFLCC", "Readout Value": 12.8}
